# test.method.notes: in vitro
# Format: cell-based, Human
# experimental.conditions: human
No end group written: not given here.
experimental.readout: viability at 48 hours, 16.52 μg/ml

1. PRGPYPPGPLAPPQ [p1978, PRGPYPPGPLAPPQ] | 95 to 98%

----------
# test.method.notes: in vitro
# Type: cell-based, Human
# experimental.conditions: human
No end group written: not given here.
experimental.readout: viability at 48 hours, 8.26 μg/ml (%)

1. PRGPYPPGPLAPPQ [p1978, PRGPYPPGPLAPPQ] | 91
